assay-target: T1, recombinant human IL-23R/Fc chimera (R&D Systems) (human, UniProt Q5VWK5 24-353)
T1 construct: bought; also called human IL-23R/Fc fusion protein; rhIL23RFc
T1 sequence (looked up): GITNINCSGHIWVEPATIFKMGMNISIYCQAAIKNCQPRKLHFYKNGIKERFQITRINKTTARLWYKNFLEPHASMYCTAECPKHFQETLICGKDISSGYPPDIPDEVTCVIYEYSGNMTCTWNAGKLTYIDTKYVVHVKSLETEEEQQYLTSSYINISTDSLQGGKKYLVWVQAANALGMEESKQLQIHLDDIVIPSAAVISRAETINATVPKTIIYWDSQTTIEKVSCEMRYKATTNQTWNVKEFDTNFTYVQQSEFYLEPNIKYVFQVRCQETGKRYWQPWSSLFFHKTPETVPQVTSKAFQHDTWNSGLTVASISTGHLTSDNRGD
method-description: competition ELISA against IL-23
Reported Ratio IC50 to 056-53.H4E IC50 is given for each of the following binders.
Give a bare numeral; the unit ratio is implied.

The following binders have reported results that may help.
binder: 105-78-2E6 ATRIMER (designed binder, not shown: C-terminal purification tag: Myc/His6 (pANA4) or HA-StrepII (pANA10)) EPPTQKPKKIVNAKKDVVNTKMFEELKSRLDTLAQEVALLKEQQALQTVCLKGTKVHMKCFLAFTQTKTFHEASEDCISRGGTLSTPQTGSENDALYEYLRQSVGNEAEIWLGLNGSLRTNTWVDMTGARIAYKNWETEITAQPDGGFGVFGENCAVLSGAANGKWFDKRCRDQLPYICQFGIV
assay-result: 1

binder: 101-51-1A8 ATRIMER (designed binder, ATRIMER is a homotrimer; one protomer is given., not shown: C-terminal purification tag: Myc/His6 (pANA4) or HA-StrepII (pANA10)) EPPTQKPKKIVNAKKDVVNTKMFEELKSRLDTLAQEVALLKEQQALQTVCLKGTKVHMKCFLAFTQTKTFHEASEDCISRGGTLSTPQTGSENDALYEYLRQSVGNEAEIWLGLNGSALTNTWVDMTGARIAYKNWERTPPWQPEGGFGYFGENCAVLSGAANGKWFDKRCRDQLPYICQFGIV
assay-result: 3.7

binder: 105-08-2G4 ATRIMER (designed binder, not shown: C-terminal tag: His/Myc (pANA4) or HA-StrepII (pANA10)) EPPTQKPKKIVNAKKDVVNTKMFEELKSRLDTLAQEVALLKEQQALQTVCLKGTKVHMKCFLAFTQTKTFHEASEDCISRGGTLSTPQTGSENDALYEYLRQSVGNEAEIWLGLNGSPRTGTWVDMTGARIAYKNWETEITAQPDGGFGYFGENCAVLSGAANGKWFDKRCRDQLPYICQFGIV
assay-result: 2.5

binder: 101-54-4B6 ATRIMER (designed binder) EPPTQKPKKIVNAKKDVVNTKMFEELKSRLDTLAQEVALLKEQQALQTVCLKGTKVHMKCFLAFTQTKTFHEASEDCISRGGTLSTPQTGSENDALYEYLRQSVGNEAEIWLGLNGSALTNTWVDMTGARIAYKNWEPPGPHHPMGGFGVFGENCAVLSGAANGKWFDKRCRDQLPYICQFGIV
assay-result: 0.3

Now look at this one.
Ratio IC50 to 056-53.H4E IC50 lookup needed for 101-54-4B10 ATRIMER (designed binder, ATRIMER is a homotrimer; one protomer is given., not shown: C-terminal purification tag: Myc/His6 (pANA4) or HA-StrepII (pANA10)) EPPTQKPKKIVNAKKDVVNTKMFEELKSRLDTLAQEVALLKEQQALQTVCLKGTKVHMKCFLAFTQTKTFHEASEDCISRGGTLSTPQTGSENDALYEYLRQSVGNEAEIWLGLNGSALTNTWVDMTGARIAYKNWERPPLYQPGGGFGYFGENCAVLSGAANGKWFDKRCRDQLPYICQFGIV , thanks.
1.4
